B1: PHTF1 (parent)
chain: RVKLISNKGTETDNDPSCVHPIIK

Variants of: B1
Experiment: protein stability index of a GFP-peptide fusion (GPS, HEK-293T) (PSI 1-6); higher = more stable;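 further: lentivirally expressed fusions sorted by FACS into six bins by GFP to DsRed ratio, PSI derived from sequencing read proportions per bin multiplied by bin number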
Conditions: c terminus: a fixed tail appended
experimental readout: protein stability index
Simply state the number, no unit and no words.

# example entries with known answers
variant spec	protein stability index
K3Q	4.07
I22E	4.38
K8C	3.04
D13F	2.96
L4W	4.24
I5D	4.7
C18Q	4.28
K24F	2.33

// query Can you share its protein stability index? I mean this variant: P16C
// result 3.82

// query Can you share its protein stability index? I mean this variant: I22N
// result 4.5
